# Test system: Vero E6 infected with SARS-CoV-2
# Experiment notes: morphology score (similarity to uninfected cells); higher = more like uninfected cells
# Setup conditions: 24 h
Reported property: morphology score
# respond with the number and nothing more

c1ccc(-c2ccc(CNc3nc(-c4ccccn4)nnc3-c3ccccc3)cc2)cc1 (10 µM)	-0.0584
CCOC(=O)[C@H](CCc1ccccc1)N[C@H]1CCc2ccccc2N(CC(=O)O)C1=O [benazepril] (10 µM)	0.413
Cc1nc(N)sc1-c1ccnc(Nc2ccc(N3CCOCC3)cc2)n1 (0.833333 µM)	0.443

Then this compound:
morphology score reported for this compound CC[N+](CC)(CCCNC1=CC(=O)C(NCCC[N+](CC)(CC)Cc2ccccc2)=CC1=O)Cc1ccccc1 [benzoquinonium-dibromide] (10 µM) : -0.00889

====

Below: a set of entries, each annotated with reported morphology score.
# Test system: Vero E6 infected with SARS-CoV-2
# Experiment notes: morphology score (similarity to uninfected cells); higher = more like uninfected cells
# Setup conditions: 24 h
Enter a number only.

OCc1ccc(O[C@@H]2O[C@H](CO)[C@@H](O)[C@H](O)[C@H]2O)cc1 [gastrodin] (10 µM)	0.19

Tested on Vero E6 infected with SARS-CoV-2, the item CCOC(=O)Nc1ccc(NCc2ccc(F)cc2)cc1N [Retigabine] (10 µM) showed morphology score equal to 0.067

# morphology score measured on Vero E6 infected with SARS-CoV-2 for item O=C(O)c1cc(=O)[nH]c(=O)[nH]1 [orotic-acid] (10 µM) = 0.104

// returns morphology score for CC(=O)OCC(=O)[C@@]1(OC(C)=O)[C@@H](C)C[C@H]2[C@@H]3C[C@H](F)C4=CC(=O)C=C[C@]4(C)[C@@]3(F)[C@@H](O)C[C@@]21C [diflorasone-diacetate] (10 µM) with Vero E6 infected with SARS-CoV-2; value = 0.0652

Summary line: O=c1[nH]c2ccccc2n1C1CCN(CCOc2ccccc2)CC1 [oxiperomide] (0.833333 µM) , Vero E6 infected with SARS-CoV-2, reported morphology score = -0.0147

Observed morphology score, Vero E6 infected with SARS-CoV-2, Cc1c(NC(=O)c2cc3c(s2)CCCC3)cccc1-c1cn(C)c(=O)c(Nc2ccc(C3C(=O)N(C)CCN3C)cc2)n1 (stereo in doubt) (10 µM) : 0.45

Form field morphology score for item CC(C)N(CC[C@H](c1ccccc1)c1cc(CO)ccc1O)C(C)C [5-hydroxymethyl-tolterodine] (10 µM) on Vero E6 infected with SARS-CoV-2: 0.191

====

# Test system: Vero E6 infected with SARS-CoV-2
# Experiment notes: inhibition of SARS-CoV-2 cytopathic effect; higher = more antiviral protection, active = above 15
# Setup conditions: 100 nM; 48 h
Measured inhibition of SARS-CoV-2 cytopathic effect values are reported for all entries that follow.
Just the number please, in %, no unit attached.

See these solved cases before continuing.
O=S(=O)(O)CCS	1.16
On1ncc(C2CCNCC2)c1-c1cccc(-c2ccccc2)c1	1.14
CC(C)(C)NCC(O)COc1ccc(NC(=O)NC2CCCCC2)cc1 (stereo not given)	-0.81
COc1ccc(CCCO[C@@H](Cn2ccnc2)c2ccc(OC)cc2)cc1	-10.2

Entry `CO/N=C(\C(=O)N[C@@H]1C(=O)N2C(C(=O)OCOC(=O)C(C)(C)C)=C(/C=C\c3scnc3C)CS[C@H]12)c1csc(N)n1` , inhibition of SARS-CoV-2 cytopathic effect reported as -2.07

Form: compound = `Ic1cc(-c2ccccc2)ncn1` ; inhibition of SARS-CoV-2 cytopathic effect = -2.43

// sample Cc1cc2c(F)c(Oc3ncnn4cc(OC[C@@H](C)OC(=O)[C@H](C)N)c(C)c34)ccc2[nH]1 [brivanib-alaninate] , its inhibition of SARS-CoV-2 cytopathic effect was 1.96

inhibition of SARS-CoV-2 cytopathic effect measured on `CN(CCCN1c2ccccc2CCc2ccccc21)CC(=O)c1ccc(Cl)cc1` = 1.56

Lab note: measured inhibition of SARS-CoV-2 cytopathic effect of `O=c1cc[nH]c(=S)[nH]1` was 2.51

====

Recorded measurements of inhibition of SARS-CoV-2 cytopathic effect, one per entry
# System: Vero E6 infected with SARS-CoV-2
# Experiment notes: inhibition of SARS-CoV-2 cytopathic effect; higher = more antiviral protection, active = above 15
# Setup conditions: 100 nM; 48 h
The response must be a number in % with no trailing unit.

Some entries whose results are on file:
CCCCc1nc2cc(/C=C/C(=O)NO)ccc2n1CCN(CC)CC	-5.57
C[C@@H](O[C@H]1OCCN(Cc2nn(P(=O)(O)O)c(=O)[nH]2)[C@H]1c1ccc(F)cc1)c1cc(C(F)(F)F)cc(C(F)(F)F)c1 [fosaprepitant-dimeglumine]	1
OC[C@H]1O[C@@H](c2ccc(Cl)c(Cc3ccc(O[C@H]4CCOC4)cc3)c2)[C@H](O)[C@@H](O)[C@@H]1O	0.91
C[C@@H](O)[C@H]1C(=O)N2C(C(=O)O)=C(SCCNC=N)C[C@H]12	9.32
CC1(C)C(=O)NC2=C1C(=O)C(=O)c1ccccc12	-0.78
O=C(O)Cc1ccc(CCNS(=O)(=O)c2ccc(Cl)cc2)cc1	-1.18
NC[C@H]1O[C@H](O[C@H]2[C@H](O[C@@H]3O[C@H](CO)[C@@H](O)[C@H]3O)[C@@H](O)[C@H](N)C[C@@H]2N)[C@H](N)[C@@H](O)[C@@H]1O [ribostamycin-sulfate]	-0.77
NC(=O)c1cnc2[nH]ccc2c1N[C@@H]1[C@@H]2CC3C[C@H]1C[C@@](O)(C3)C2	-1.46
Clc1cccc(-c2nnnn2Cc2cccnc2)c1Cl	0.71
O=C(/C=C/N1C[C@H]2C[C@@H]1CN2c1ccccn1)c1ccccc1O	-0.95

# inhibition of SARS-CoV-2 cytopathic effect (compound: `COc1ccc(NS(=O)(=O)c2sc3ccc(Cl)cc3c2C)cc1N1CCNCC1` ) is 0.86

Sample `Cc1cc(C)c(N)c(C#Cc2cccc(F)c2)n1` ; inhibition of SARS-CoV-2 cytopathic effect observed: 0.6

inhibition of SARS-CoV-2 cytopathic effect recorded for this compound, `CN1[C@@H]2C[C@@H](O)C[C@H]1[C@@H]1O[C@@H]12` , is -0.08

====

Catalogue of inhibition of SARS-CoV-2 cytopathic effect values
# Test system: Vero E6 infected with SARS-CoV-2
# Experiment notes: inhibition of SARS-CoV-2 cytopathic effect; higher = more antiviral protection, active = above 15
# Setup conditions: 10000 nM; 48 h
Response body: numeric value in %, unit text excluded.

Solved cases below.
CC[C@H](/C=C/[C@@H](C)[C@H]1CC[C@H]2[C@@H]3CC=C4C[C@@H](O)CC[C@]4(C)[C@H]3CC[C@]12C)C(C)C [Stigmasterol (Stigmasterin)]	-0.01
Nc1nc(OCC2CCCCC2)c2nc[nH]c2n1	-1.27
O=C(O)c1cc(O)c2c(c1)[C@H]([C@H]1c3cc(C(=O)O)cc(O)c3C(=O)c3c(O[C@@H]4O[C@H](CO)[C@@H](O)[C@H](O)[C@H]4O)cccc31)c1cccc(O[C@@H]3O[C@H](CO)[C@@H](O)[C@H](O)[C@H]3O)c1C2=O [sennoside-A]	-2.08
N[C@@H](CC(=O)N1CCn2c(nnc2C(F)(F)F)C1)Cc1cc(F)c(F)cc1F	1
O=C(CCN1CCN(C(=O)OCc2cc(Cl)cc(Cl)c2)CC1)c1ccc2[nH]c(=O)oc2c1	1.71
COc1cc(C(=O)NCc2ccc(OCCN(C)C)cc2)cc(OC)c1OC [trimethobenzamide]	-0.65

# inhibition of SARS-CoV-2 cytopathic effect of `O=C1[C@H]2CCCC[C@H]2C(=O)N1CCCCN1CCN(c2nsc3ccccc23)CC1` = -1.69

Looking up OC[C@H]1O[C@@H](O[C@@H]2[C@H](O)[C@@H](O)[C@H](O[C@H]3[C@H](O)[C@@H](O)C(O)O[C@@H]3CO)O[C@@H]2CO)[C@H](O)[C@@H](O)[C@H]1O (stereo not given in full) , I found its inhibition of SARS-CoV-2 cytopathic effect recorded as -0.03

====

Measured morphology score values are reported for all entries that follow.
# Tested on: Vero E6 infected with SARS-CoV-2
# Experiment notes: morphology score (similarity to uninfected cells); higher = more like uninfected cells
# Setup conditions: 24 h
// return a plain number; no unit text

O=C(O)CCc1cc(I)c(Oc2ccc(O)cc2)c(I)c1 [diiodothyropropionic-acid] (10 µM)	0.207

# molecule O=C(O)[C@H](O)c1ccccc1 [mandelic-acid] (10 µM) ; its morphology score = -0.0448

# morphology score of Cc1ccc2nc(NCCN)c3ncc(C)n3c2c1 (0.833333 µM) = -0.353

molecule CC[C@H](C)[C@@H]1NC(=O)[C@H](Cc2ccc(OC)cc2)NC(=O)CCCSC[C@@H](C(=O)N2CCC[C@H]2C(=O)N[C@@H](CC(C)C)C(=O)NCC(N)=O)NC(=O)[C@H](CC(N)=O)NC(=O)[C@H](CCC(N)=O)NC1=O [carbetocin] (10 µM) , morphology score observed: 0.123

Just so you know, measured morphology score for COc1cc(Cc2cnc(N)nc2N)cc(OC)c1OC [trimethoprim] (10 µM) came out at -0.0548

Recorded result, CCC(C)(CN(C)C)OC(=O)c1ccccc1 (stereo not drawn) [amyleine] (10 µM) , morphology score: -0.104

// recorded morphology score for Cc1cc(C(=O)O)sc1C(N)C(=O)O (stereo not drawn) (10 µM) : -0.0491

morphology score in this record for NCCC(O)(P(=O)(O)O)P(=O)(O)O [pamidronate] (10 µM) : 0.09
